Entries and their Activity
# Test system: PC-12
# EXPERIMENT DESCRIPTION: Neuroprotective activity against glutamate-induced neurotoxicity in rat PC-12 cells assessed as survival rate at 1 uM by WST-8 assay
# Type: functional

| SMILES | ASSAYED TARGET | Activity / % |
| --- | --- | --- |
| CNC(=O)c1ccccc1NC(=O)c1c[nH]c2c(Cl)cccc2c1=O | PC-12 | 47.3 |
| N#Cc1ccc(NC(=O)c2c[nH]c3ccccc3c2=O)cc1 | PC-12 | 39.7 |
| CC(=O)Nc1ccc(NC(=O)C2=Cc3c(Br)cccc3OC2)cc1 | PC-12 | 46.9 |
| COC(=O)c1ccc(NC(=O)C2=Cc3ccccc3OC2)cc1 | PC-12 | 62.6 |
| CC(=O)Nc1ccc(NC(=O)C2=Cc3ccccc3OC2)cc1 | PC-12 | 54.1 |
| COc1ccccc1NC(=O)C1=Cc2c(OC)cccc2OC1 | PC-12 | 56.1 |
| O=C(Nc1cccnc1)c1c[nH]c2ccccc2c1=O | PC-12 | 38.5 |
| COc1ccc(NC(=O)c2c[nH]c3ccccc3c2=O)cc1 | PC-12 | 69.8 |
| CC(=O)Nc1ccc(NC(=O)c2c[nH]c3c(Cl)cccc3c2=O)cc1 | PC-12 | 62 |
| COC(=O)c1ccc(NC(=O)c2c[nH]c3ccccc3c2=O)cc1 | PC-12 | 61.3 |
| CC(=O)Nc1ccc(NC(=O)c2c[nH]c3ccccc3c2=O)cc1 | PC-12 | 66.6 |
